Ref: paper PMC3817407

target-of-assay: T1, ECF22_4450
T1 chain: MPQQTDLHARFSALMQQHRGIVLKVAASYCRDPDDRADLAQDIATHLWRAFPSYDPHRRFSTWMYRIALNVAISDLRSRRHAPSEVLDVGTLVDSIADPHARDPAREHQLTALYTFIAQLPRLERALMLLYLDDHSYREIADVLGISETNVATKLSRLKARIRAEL
I'd appreciate it if you could supply fold repression values for the items below.
Provide a numeric answer; units are not to be included.

input: What measured fold repression goes with AS01_3473 (protein) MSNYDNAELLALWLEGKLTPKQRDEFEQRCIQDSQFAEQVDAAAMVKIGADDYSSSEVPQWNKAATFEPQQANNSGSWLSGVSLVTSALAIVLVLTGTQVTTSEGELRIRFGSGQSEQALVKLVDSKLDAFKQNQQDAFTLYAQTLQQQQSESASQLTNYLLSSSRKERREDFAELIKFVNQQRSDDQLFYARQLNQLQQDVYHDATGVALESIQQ ?
output: 1.97

input: Can you handle AS03_1198 (protein) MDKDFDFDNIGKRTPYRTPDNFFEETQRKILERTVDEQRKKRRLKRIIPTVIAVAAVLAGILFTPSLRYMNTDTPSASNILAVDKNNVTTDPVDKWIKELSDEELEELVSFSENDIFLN next?
output: 1.2

input: Continue with AS37_2513 (protein) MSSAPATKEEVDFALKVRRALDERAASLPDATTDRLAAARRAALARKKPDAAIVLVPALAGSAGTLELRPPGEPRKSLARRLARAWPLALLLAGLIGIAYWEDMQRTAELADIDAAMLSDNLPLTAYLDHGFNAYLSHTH
output: 7.22
